Just for reference, patent US8680290B2 is where these values come from.

For each entry below, report its herbicidal action (damage rating 0-10), Setaria value.
System: Monocotyledonous and dicotyledonous test plants
Method: Example B2 herbicidal action, application post-emergence, 96-cell seed trays (Table B2a)
Type: in vivo
Condition Set: Setaria, 1000 g/ha
Reply with the value as a number alone.

For reference, reported herbicidal action (damage rating 0-10), Setaria for CC1(C)CC(S(=O)(=O)C(Cl)c2c(F)cccc2F)=NO1 (stereo not shown) [Compound No. 1.07] stands at 7

Measured herbicidal action (damage rating 0-10), Setaria, CC1(C)CC(S(=O)(=O)C(F)c2c(F)cccc2F)=NO1 (stereo not shown) [1.06] : 7

Form field herbicidal action (damage rating 0-10), Setaria, entry CC1(C)CC(S(=O)(=O)C(Cl)c2c(F)cccc2Cl)=NO1 (stereo not shown) [1.32] : 6

Form: compound = CC1(C)CC([S+]([O-])C(Cl)c2c(F)cccc2Cl)=NO1 (single isomer, unassigned) [1.34] ; herbicidal action (damage rating 0-10), Setaria = 8

---

System: Monocotyledonous and dicotyledonous test plants
Method: Example B1 herbicidal action, application pre-emergence (Table B1b)
Format: in vivo
Condition Set: Amaranthus, 250 g/ha, evaluated after 4 weeks
Measurement Label: herbicidal action (damage rating 0-10), Amaranthus
Reply with just the number.

The observed herbicidal action (damage rating 0-10), Amaranthus for COC(=O)C(Cl)(c1c(F)cccc1F)S(=O)(=O)C1=NOC(C)(C)C1 (centres unmarked) when tested with Monocotyledonous and dicotyledonous test plants stands at 8

herbicidal action (damage rating 0-10), Amaranthus value, target or system Monocotyledonous and dicotyledonous test plants, for CC1(C)CC(S(=O)(=O)C(F)(Cl)c2cc(F)ccc2F)=NO1 (centres unmarked) : 10

herbicidal action (damage rating 0-10), Amaranthus for Monocotyledonous and dicotyledonous test plants with input CC1(C)CC(S(=O)(=O)C(F)(F)c2cc(F)ccc2F)=NO1 equals 10

Reading of herbicidal action (damage rating 0-10), Amaranthus for CC1(C)CC(S(=O)(=O)C(F)c2cc(F)cc3c2OCOC3)=NO1 (centres unmarked) with Monocotyledonous and dicotyledonous test plants: 3

Field herbicidal action (damage rating 0-10), Amaranthus (system: Monocotyledonous and dicotyledonous test plants) for entry Cc1cccc(C(CC=C(F)F)S(=O)(=O)C2=NOC(C)(C)C2)c1 (centres unmarked) = 2

Entry CC1(C)CC(S(=O)(=O)C(F)c2cccnc2Cl)=NO1 (centres unmarked) , tested on Monocotyledonous and dicotyledonous test plants, has a reported herbicidal action (damage rating 0-10), Amaranthus of 7

Entry CC1(C)CC(S(=O)(=O)C(F)(Cl)c2ccccc2OC(F)(F)F)=NO1 (centres unmarked) : herbicidal action (damage rating 0-10), Amaranthus on Monocotyledonous and dicotyledonous test plants = 10

Assay Monocotyledonous and dicotyledonous test plants, sample COCC(c1c(F)cccc1F)S(=O)(=O)C1=NOC(C)(C)C1 (centres unmarked) , herbicidal action (damage rating 0-10), Amaranthus read: 8

Hey, Monocotyledonous and dicotyledonous test plants data for CC1(C)CC(S(=O)(=O)C(F)(Cl)c2ccccc2)=NO1 (racemic) : herbicidal action (damage rating 0-10), Amaranthus came out at 10

Record COc1ccccc1C(F)S(=O)(=O)C1=NOC(C)(C)C1 (centres unmarked) has Monocotyledonous and dicotyledonous test plants herbicidal action (damage rating 0-10), Amaranthus equal to 0

Per the reported Monocotyledonous and dicotyledonous test plants data, CC1(C)CC(S(=O)(=O)C(F)(F)c2cc(F)cc(F)c2)=NO1 has herbicidal action (damage rating 0-10), Amaranthus of 10

// compound CC1(C)CC(S(=O)(=O)C(C)(F)c2c(F)cccc2F)=NO1 (centres unmarked) , assay Monocotyledonous and dicotyledonous test plants, herbicidal action (damage rating 0-10), Amaranthus value: 9

# lookup: CC1(C)CC(S(=O)(=O)C(C(=O)CCl)c2c(F)cccc2F)=NO1 (centres unmarked) on Monocotyledonous and dicotyledonous test plants, herbicidal action (damage rating 0-10), Amaranthus = 7

Assay Monocotyledonous and dicotyledonous test plants, sample COc1cc(OC)cc(C(F)(F)S(=O)(=O)C2=NOC(C)(C)C2)c1 , herbicidal action (damage rating 0-10), Amaranthus read: 9

Per the reported Monocotyledonous and dicotyledonous test plants data, Cc1ccccc1C(F)S(=O)(=O)C1=NOC(C)(C)C1 (racemic) has herbicidal action (damage rating 0-10), Amaranthus of 8

Tested on Monocotyledonous and dicotyledonous test plants, the item Cn1nc(C(F)(F)F)c(C(Cl)(Cl)S(=O)(=O)C2=NOC(C)(C)C2)c1OC(F)F showed herbicidal action (damage rating 0-10), Amaranthus equal to 10

Measured on Monocotyledonous and dicotyledonous test plants, C=C(OC(C)=O)C(Cl)(c1c(F)cccc1F)S(=O)(=O)C1=NOC(C)(C)C1 (centres unmarked) has a documented herbicidal action (damage rating 0-10), Amaranthus of 5

Reported herbicidal action (damage rating 0-10), Amaranthus (Monocotyledonous and dicotyledonous test plants) for entry CC1(C)CC(S(=O)(=O)C(Br)c2ccccc2C#N)=NO1 (racemic) is 9

Record Cn1nc(C(F)(F)F)c(C(Cl)S(=O)(=O)C2=NOC(C)(C)C2)c1OC(F)F (centres unmarked) / Monocotyledonous and dicotyledonous test plants, herbicidal action (damage rating 0-10), Amaranthus recorded as 10

Record CC1(C)CC(S(=O)(=O)C(F)(F)c2cccc(F)c2F)=NO1 / Monocotyledonous and dicotyledonous test plants, herbicidal action (damage rating 0-10), Amaranthus recorded as 10

Tested system Monocotyledonous and dicotyledonous test plants; herbicidal action (damage rating 0-10), Amaranthus recorded for CC1(C)CC(S(=O)(=O)C(Cl)(Cl)c2c(F)cccc2F)=NO1 was 10

Entry CC1(C)CC(S(=O)(=O)C(Br)c2cccc(F)c2F)=NO1 (centres unmarked) under Monocotyledonous and dicotyledonous test plants had herbicidal action (damage rating 0-10), Amaranthus of 10

Assay Monocotyledonous and dicotyledonous test plants, sample COc1cc(OC)cc(C(Br)S(=O)(=O)C2=NOC(C)(C)C2)c1 (racemic) , herbicidal action (damage rating 0-10), Amaranthus read: 10

Summary: CC1(C)CC(S(=O)(=O)C(Br)c2ccccc2)=NO1 (racemic) , Monocotyledonous and dicotyledonous test plants, herbicidal action (damage rating 0-10), Amaranthus = 9

herbicidal action (damage rating 0-10), Amaranthus value, target or system Monocotyledonous and dicotyledonous test plants, for Cc1nsc(C#N)c1C(F)S(=O)(=O)C1=NOC(C)(C)C1 (centres unmarked) : 7

// compound CC1(C)CC(S(=O)(=O)C(F)(F)c2cc(F)cc3c2OCOC3)=NO1 , assay Monocotyledonous and dicotyledonous test plants, herbicidal action (damage rating 0-10), Amaranthus value: 10

Record CC1(C)CC(S(=O)(=O)C(F)(Cl)c2ccc(F)cc2F)=NO1 (centres unmarked) ; system Monocotyledonous and dicotyledonous test plants; herbicidal action (damage rating 0-10), Amaranthus = 10

Item CC(=O)OC(C)=C(c1c(C(F)(F)F)nn(C)c1OCC(F)(F)F)S(=O)(=O)C1=NOC(C)(C)C1 ; assay system Monocotyledonous and dicotyledonous test plants; herbicidal action (damage rating 0-10), Amaranthus reported as 7

The reported Monocotyledonous and dicotyledonous test plants herbicidal action (damage rating 0-10), Amaranthus of Cc1ccc(F)c(C(F)S(=O)(=O)C2=NOC(C)(C)C2)c1F (centres unmarked) is 10

Noted herbicidal action (damage rating 0-10), Amaranthus for Cc1ccccc1C(F)(F)S(=O)(=O)C1=NOC(C)(C)C1 , tested on Monocotyledonous and dicotyledonous test plants: 10

Assay Monocotyledonous and dicotyledonous test plants, sample Cn1nc(C(F)(F)F)c(C(Cl)S(=O)(=O)C2=NOC(C)(C)C2)c1Cl (centres unmarked) , herbicidal action (damage rating 0-10), Amaranthus read: 5

Fill in: Monocotyledonous and dicotyledonous test plants herbicidal action (damage rating 0-10), Amaranthus for Cc1cc(C(F)(F)S(=O)(=O)C2=NOC(C)(C)C2)no1 = 9

// returns herbicidal action (damage rating 0-10), Amaranthus for CC1(C)CC(S(=O)(=O)C(F)(F)c2ccccc2-c2ccccc2)=NO1 with Monocotyledonous and dicotyledonous test plants; value = 9

Lab note: compound Cc1ccccc1C(F)(Cl)S(=O)(=O)C1=NOC(C)(C)C1 (racemic) tested on Monocotyledonous and dicotyledonous test plants; recorded herbicidal action (damage rating 0-10), Amaranthus was 5

Reported Monocotyledonous and dicotyledonous test plants herbicidal action (damage rating 0-10), Amaranthus for item COc1cc(C(Cl)S(=O)(=O)C2=NOC(C)(C)C2)on1 (centres unmarked) was 0

Readout herbicidal action (damage rating 0-10), Amaranthus for Cc1nn(C)c(OCC(F)(F)F)c1C(F)S(=O)(=O)C1=NOC(C)(C)C1 (centres unmarked) , test system Monocotyledonous and dicotyledonous test plants, was 10

Sample CC1(C)CC(S(=O)(=O)C(F)(F)c2cccnc2Cl)=NO1 , system: Monocotyledonous and dicotyledonous test plants. Its herbicidal action (damage rating 0-10), Amaranthus is 10

Recorded herbicidal action (damage rating 0-10), Amaranthus for CCOC(=O)c1ccc(C(F)(F)S(=O)(=O)C2=NOC(C)(C)C2)c(F)c1 on Monocotyledonous and dicotyledonous test plants was 8

---

Please provide measured herbicidal action (damage rating 0-10), Digitaria for the entries that follow.
Tested on: Monocotyledonous and dicotyledonous test plants
Method: Example B1 herbicidal action, application pre-emergence (Table B1b)
Format: in vivo
Condition Set: Digitaria, 250 g/ha, evaluated after 4 weeks
Answer as a number with no unit attached.

Noted herbicidal action (damage rating 0-10), Digitaria for COc1cc(OC)cc(C(F)(F)S(=O)(=O)C2=NOC(C)(C)C2)c1 , tested on Monocotyledonous and dicotyledonous test plants: 9

Test item CC1(C)CC(S(=O)(=O)C(C)(F)c2c(F)cccc2F)=NO1 (stereo not shown) ; Monocotyledonous and dicotyledonous test plants; reported herbicidal action (damage rating 0-10), Digitaria was 10

// herbicidal action (damage rating 0-10), Digitaria (Monocotyledonous and dicotyledonous test plants) for CC1(C)CC(S(=O)(=O)C2(c3c(F)cccc3F)CC2)=NO1 = 7

Summary: CC1(C)CC(S(=O)(=O)C(F)c2cccnc2Cl)=NO1 (stereo not shown) , Monocotyledonous and dicotyledonous test plants, herbicidal action (damage rating 0-10), Digitaria = 9

The observed herbicidal action (damage rating 0-10), Digitaria for CCOC(=O)c1ccc(C(F)(F)S(=O)(=O)C2=NOC(C)(C)C2)c(F)c1 when tested with Monocotyledonous and dicotyledonous test plants stands at 6

Value sought: herbicidal action (damage rating 0-10), Digitaria, system Monocotyledonous and dicotyledonous test plants, item CC1(C)CC(S(=O)(=O)C(F)(Cl)c2ccccc2C#N)=NO1 (racemic) . Result: 9

herbicidal action (damage rating 0-10), Digitaria on Monocotyledonous and dicotyledonous test plants for Cc1ccccc1C(F)(Cl)S(=O)(=O)C1=NOC(C)(C)C1 (racemic) is 9

GET /values?item= CC1(C)CC(S(=O)(=O)C(Cl)c2c(F)cccc2C(F)(F)F)=NO1 (racemic) &system= Monocotyledonous and dicotyledonous test plants returns herbicidal action (damage rating 0-10), Digitaria: 10

Entry CC1(C)CC(S(=O)(=O)C(F)(Cl)c2cccc(F)c2F)=NO1 (stereo not shown) , tested on Monocotyledonous and dicotyledonous test plants, has a reported herbicidal action (damage rating 0-10), Digitaria of 10

Form field, herbicidal action (damage rating 0-10), Digitaria with Monocotyledonous and dicotyledonous test plants, item CC1(C)CC(S(=O)(=O)C(Cl)(Cl)c2c(F)cccc2F)=NO1 : 9

herbicidal action (damage rating 0-10), Digitaria value, target or system Monocotyledonous and dicotyledonous test plants, for CC1(C)CC(S(=O)(=O)C(Br)c2ccccc2C#N)=NO1 (racemic) : 9

Value sought: herbicidal action (damage rating 0-10), Digitaria, system Monocotyledonous and dicotyledonous test plants, item CC1(C)CC(S(=O)(=O)C(F)(F)c2cccnc2Cl)=NO1 . Result: 10

Sample CC1(C)CC(S(=O)(=O)C(F)(F)c2ccccc2OC(F)F)=NO1 , system: Monocotyledonous and dicotyledonous test plants. Its herbicidal action (damage rating 0-10), Digitaria is 10

With Monocotyledonous and dicotyledonous test plants as the test system, COC(=O)C(Cl)(c1c(F)cccc1F)S(=O)(=O)C1=NOC(C)(C)C1 (stereo not shown) showed herbicidal action (damage rating 0-10), Digitaria of 9

Here CC1(C)CC(S(=O)(=O)C(F)(I)c2c(F)cccc2F)=NO1 (racemic) was tested on Monocotyledonous and dicotyledonous test plants, and its herbicidal action (damage rating 0-10), Digitaria came to 10

Test item CC1(C)CC(S(=O)(=O)C(Br)c2ccccc2OC(F)F)=NO1 (racemic) ; Monocotyledonous and dicotyledonous test plants; reported herbicidal action (damage rating 0-10), Digitaria was 10

Measured herbicidal action (damage rating 0-10), Digitaria (Monocotyledonous and dicotyledonous test plants), entry CC1(C)CC(S(=O)(=O)C(F)(Cl)c2ccccc2C(F)(F)F)=NO1 (racemic) : 10

Simply: CCC(Cl)(c1c(F)cccc1F)S(=O)(=O)C1=NOC(C)(C)C1 (stereo not shown) , Monocotyledonous and dicotyledonous test plants, herbicidal action (damage rating 0-10), Digitaria = 4

Per the reported Monocotyledonous and dicotyledonous test plants data, CC1(C)CC(S(=O)(=O)C(F)(F)c2ccccc2OC(F)(F)F)=NO1 has herbicidal action (damage rating 0-10), Digitaria of 10
